Origin of the recorded values: patent US4931440A

- PROTOCOL_DESCRIPTION: Acute toxicity, oral, 14 days observation
- APPLIED_CONDITIONS: rat, in vivo, male SD rats
Exercise: for every item that follows, state its recorded LD50 at 336 h.
One number for each entry, in mg/kg.

> print(dat)
                           molecular.string     observable  test.result
1  O=C(O)Cn1c(=O)n(Cc2ccc(Br)cc2F)c(=O)c2ccc(Cl)cc21  LD50 at 336 h         4250

Read the next record carefully.
Challenge: Quick one: LD50 at 336 h for O=C(O)Cn1c(=O)n(Cc2ccc(Br)cc2F)c(=O)c2ccc(F)cc21 ?
Response given: 2140
